# TESTED_ON: Prostaglandin G/H synthase 1 (Ovis aries, UniProt P05979)
# Sequence (P05979 whole entry): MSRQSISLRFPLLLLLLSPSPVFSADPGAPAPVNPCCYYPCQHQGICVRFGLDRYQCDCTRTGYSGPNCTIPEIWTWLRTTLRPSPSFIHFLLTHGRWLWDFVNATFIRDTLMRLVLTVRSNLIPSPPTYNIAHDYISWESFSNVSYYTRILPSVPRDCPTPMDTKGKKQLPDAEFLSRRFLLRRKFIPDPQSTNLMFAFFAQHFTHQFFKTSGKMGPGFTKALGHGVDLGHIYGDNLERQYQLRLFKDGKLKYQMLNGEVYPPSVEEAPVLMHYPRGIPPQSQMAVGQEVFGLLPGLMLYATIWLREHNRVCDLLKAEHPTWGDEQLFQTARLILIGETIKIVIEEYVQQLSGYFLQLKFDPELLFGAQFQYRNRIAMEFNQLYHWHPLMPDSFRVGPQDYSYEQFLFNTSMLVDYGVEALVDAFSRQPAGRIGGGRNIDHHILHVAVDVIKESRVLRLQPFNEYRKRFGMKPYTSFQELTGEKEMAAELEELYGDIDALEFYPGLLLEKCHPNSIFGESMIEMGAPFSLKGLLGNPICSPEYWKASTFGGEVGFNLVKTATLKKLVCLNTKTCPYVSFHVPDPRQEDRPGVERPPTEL
# EXPERIMENT_DESCRIPTION: Cyclooxygenase activity assay
# TEST_SETTINGS: pH 8; 37 °C
Reported pIC50 values for a set of compounds
Formally, pIC50 is defined as -log10 of the concentration c, with c in mol/L.

Below, 3 compounds whose answers are already recorded.
[[record]]
compound = "CC(C)(C)c1ccc(/C=C2\\CC/C(=C\\c3ccc(C(C)(C)C)cc3)C2=O)cc1"
reported = 4.22

[[record]]
compound = "CCN(CC)c1ccc(/C=C2\\CCC/C(=C\\c3ccc(N(CC)CC)cc3)C2=O)cc1"
reported = 4.41

[[record]]
compound = "COc1cc(C=CC(=O)CC(=O)C=Cc2ccc(O)c(OC)c2)ccc1O"
reported = 4.50


Please turn your attention to the following entry.
## Task Given the compound CC(C)(C)c1ccc(/C=C2\CCC/C(=C\c3ccc(C(C)(C)C)cc3)C2=O)cc1 , write its reported pIC50.
## Result 4.36

###

Reported pIC50 values for a set of molecules
Target sequence: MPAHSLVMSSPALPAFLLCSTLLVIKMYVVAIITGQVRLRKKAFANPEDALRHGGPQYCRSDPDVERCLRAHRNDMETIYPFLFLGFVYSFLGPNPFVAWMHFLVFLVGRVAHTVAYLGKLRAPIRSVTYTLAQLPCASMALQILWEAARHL
Formally, pIC50 is defined as -log10 of the concentration c, with c in mol/L.

[[record]]
molecule = "CCN(CC)c1ccc(/C=C2\\CC/C(=C\\c3ccc(N(CC)CC)cc3)C2=O)cc1"
measure_name = "pIC50"
reported = 5.26

[[record]]
molecule = "COc1cccc(/C=C2\\CCC/C(=C\\c3cccc(OC)c3OC)C2=O)c1OC"
measure_name = "pIC50"
reported = 5.13

[[record]]
molecule = "CC(C=C1CCCC(=CC(C)c2ccccc2)C1=O)c1ccccc1 (centres undefined)"
measure_name = "pIC50"
reported = 4.69

[[record]]
molecule = "CC(C=CC(=O)C=CC(C)c1ccccc1)c1ccccc1 (centres undefined)"
measure_name = "pIC50"
reported = 4.22

[[record]]
molecule = "CC(C)(C)c1ccc(/C=C/C(=O)/C=C/c2ccc(C(C)(C)C)cc2)cc1"
measure_name = "pIC50"
reported = 4.43


## Task Given the molecule CC(C)(C)c1ccc(/C=C2\CCC/C(=C\c3ccc(C(C)(C)C)cc3)C2=O)cc1 , write its reported pIC50.
## Result 5.05

## Task Given the molecule COc1cccc(/C=C2\CC/C(=C\c3cccc(OC)c3OC)C2=O)c1OC , write its reported pIC50.
## Result 4.98

## Task Given the molecule CC(C=C1CCC(=CC(C)c2ccccc2)C1=O)c1ccccc1 (centres undefined) , write its reported pIC50.
## Result 5.13

## Task Given the molecule COc1cc(C=CC(=O)CC(=O)C=Cc2ccc(O)c(OC)c2)ccc1O , write its reported pIC50.
## Result 5.31

Hello, the source for this data is BindingDB's records for doi:10.1111/cbdd.12280, in case you need it.
